A collection of molecules and their measured melting point

Some molecules with recorded melting point:
> print(dat)
                         compound.structure           result
1    O=C(O)c1cccc(-c2cc(-c3ccc(F)cc3)no2)c1  273 to 274.5 °C
2    CN(C)c1ccccc1-c1nnc(-c2ccccc2C(=O)O)o1    180 to 183 °C
3  CC(C)c1ccc(-c2csc(-c3cccc(C(=O)O)c3)n2)cc1    206 to 208 °C
4  COc1ccc(-c2n[nH]c(-c3cccc(C(=O)O)c3)n2)cc1OC    275 to 278 °C
5       O=C(O)c1cccc(-c2nnc(-c3ccccc3)o2)c1    190 to 192 °C

*Q* Look up and state reported melting point for O=C(O)c1ccc(-c2cc(-c3ccc(Cl)cc3)on2)cc1
*A* 273 to 275 °C

*Q* Look up and state reported melting point for COc1ccc(-c2cc(-c3cccc(C(=O)O)c3)no2)cc1
*A* 249.5 to 251 °C

*Q* Look up and state reported melting point for O=C(O)c1cccc(-c2ncc(-c3ccccc3Cl)o2)c1
*A* 236 to 237 °C

*Q* Look up and state reported melting point for O=C(O)c1cccc(-c2nc(-c3ccc4c(c3)OCO4)no2)c1
*A* 245 to 246 °C

###

A collection of molecules and their measured melting point

> print(dat)
                                   molecule         result
1  O=C(O)c1ccc(-c2nnc(-c3ccnc(Cl)c3)o2)cc1 [Compound 225]       > 285 °C
2  CC(C)c1ccc(-c2coc(-c3cccc(C(=O)O)c3)n2)cc1 [Compound 276]  235 to 237 °C

*Q* Look up and state reported melting point for CC(C)c1ccc(-c2ncc(-c3cccc(C(=O)O)c3)s2)cc1 [Compound No. 321]
*A* 237 to 239 °C

*Q* Look up and state reported melting point for CC(C)c1ccc(-c2coc(-c3cccc(C(=O)O)c3)c2C(=O)O)cc1 [Compound No. 314]
*A* 236 to 239 °C

*Q* Look up and state reported melting point for O=C(O)c1ccc(-c2nnc(-c3ccc(C(=O)N4CCCCC4)cc3)o2)cc1 [Compound 286]
*A* > 310 °C

*Q* Look up and state reported melting point for O=C(O)c1cccc(-c2nnc(-c3cc4ccccc4[nH]3)o2)c1 [Compound 315]
*A* > 310 °C

*Q* Look up and state reported melting point for O=C(O)c1ccc(-c2ncc(-c3ccc(OC(F)(F)F)cc3)o2)cc1 [Compound 546]
*A* 222 to 224 °C

*Q* Look up and state reported melting point for O=C(O)c1cccc(-c2ncc(-c3cccc(OC(F)(F)F)c3)o2)c1 [Compound 587]
*A* 210 to 211 °C

*Q* Look up and state reported melting point for O=C(O)c1ccc(-c2ncc(-c3cc(F)ccc3F)o2)cc1 [Compound 630]
*A* 301 to 302 °C

###

A collection of compounds and their measured melting point

Some compounds with recorded melting point:
> print(dat)
                          compound.structure  recorded.endpoint           result
 1  CC(C)c1ccc(NC(=O)c2nnc(-c3ccc(C(=O)O)cc3)o2)cc1      melting point    282 to 291 °C
 2   O=C(O)c1cccc(-c2cc(-c3ccc(F)cc3F)no2)c1      melting point       > 278.5 °C
 3      Cc1ccccc1-c1cnc(-c2ccc(C(=O)O)cc2)o1      melting point    284 to 286 °C
 4  O=C(O)c1cccc(-c2nc(-c3ccc(C(F)(F)F)cc3)n[nH]2)c1      melting point    235 to 238 °C
 5   O=C(O)c1cccc(-c2nc(-c3ccccc3F)n[nH]2)c1      melting point         > 310 °C
 6  CC(C)c1ccc(-c2nc(-c3cccc(C(=O)O)c3)cs2)cc1      melting point    193 to 195 °C
 7  CN(C)c1cccc(-c2nnc(-c3cccc(C(=O)O)c3)o2)c1      melting point    187 to 189 °C
 8  O=C(O)c1cccc(-c2nnc(-c3ccc4cc[nH]c4c3)o2)c1      melting point  > 290 °C (dec.)
 9  CC(C)(C)c1ccc(-c2cnc(-c3cccc(C(=O)O)c3)o2)cc1      melting point    224 to 225 °C
10  CC(C)c1ccc(-c2ccc(-c3cccc(C(=O)O)c3)s2)cc1      melting point    233 to 235 °C

*Q* Look up and state reported melting point for O=C(O)c1cccc(-c2nc(-c3ccc(Cl)cc3)no2)c1
*A* 299 to 300 °C

*Q* Look up and state reported melting point for CN(C)C(=O)c1ccc(-c2nnc(-c3ccc(C(=O)O)cc3)o2)cc1
*A* > 310 °C

*Q* Look up and state reported melting point for O=C(O)c1ccc(-c2ncc(-c3ccccc3Cl)o2)cc1
*A* 276 to 277 °C

*Q* Look up and state reported melting point for CC(C)c1ccc(-c2nnc(-c3ccc(C(=O)O)cc3)s2)cc1
*A* > 300 °C

*Q* Look up and state reported melting point for O=C(O)c1cccc(-c2nnc(-c3ccc(N4CCCC4)cc3)o2)c1
*A* 274 to 276 °C

*Q* Look up and state reported melting point for O=C(O)c1cccc(-c2ncc(-c3cccc(Cl)c3)o2)c1
*A* 220 to 222 °C

*Q* Look up and state reported melting point for O=C(O)c1ccc(-c2ncc(-c3ccccc3F)o2)cc1
*A* 272 to 273 °C

###

A collection of compounds and their measured melting point

Some compounds with recorded melting point:
> print(dat)
                                   compound  recorded.endpoint           result
1  Cc1ccc(-c2cc(-c3cccc(C(=O)O)c3)no2)cc1 [Compound 573]      melting point    257 to 259 °C
2  O=C(O)c1cccc(-c2ncc(-c3cccc(F)c3)o2)c1 [Compound 580]      melting point  223 to 224.5 °C
3  O=C(O)c1cccc(-c2ncc(-c3cccc(C(F)(F)F)c3)o2)c1 [Compound 585]      melting point  250 to 251.5 °C
4  O=C(O)c1cccc(-c2nnc(-c3ccc(Cl)nc3Cl)o2)c1 [Compound 272]      melting point    205 to 208 °C
5  CN(C)c1ccc(Cc2nnc(-c3cccc(C(=O)O)c3)o2)cc1 [Compound 85]      melting point    220 to 222 °C

*Q* Look up and state reported melting point for O=C(O)c1cccc(-c2ncc(-c3ccccc3C(F)(F)F)o2)c1 [Compound 584]
*A* 218 to 219 °C

*Q* Look up and state reported melting point for O=C(O)c1ccc(-c2ncc(-c3ccc(Cl)cc3)o2)cc1 [Compound 639]
*A* 260 to 263 °C

*Q* Look up and state reported melting point for CC(C)c1cccc(-c2nnc(-c3ccc(C(=O)O)cc3)o2)c1 [Compound 7]
*A* 227 to 229 °C

*Q* Look up and state reported melting point for O=C(O)c1cccc(-c2nc(-c3cccnc3)n[nH]2)c1 [Compound 428]
*A* > 310 °C

*Q* Look up and state reported melting point for COc1cccc(-c2cnc(-c3cccc(C(=O)O)c3)o2)c1 [Compound 594]
*A* 207 to 208 °C

###

A collection of molecules and their measured melting point

> print(dat)
                                   molecule  recorded.endpoint         result
1  O=C(O)c1cccc(-c2cc(-c3ccc(Cl)cc3)on2)c1 [Compound No. 479]      melting point  293 to 295 °C

Turning now to a further record.
*Q* Look up and state reported melting point for O=C(O)c1cccc(-c2nc(-c3ccc(OC(F)(F)F)cc3)no2)c1 [Compound 511]
*A* 217 to 218 °C

###

A collection of compounds and their measured melting point

*Q* Look up and state reported melting point for COc1ccc(-c2cnc(-c3ccc(C(=O)O)cc3)o2)cc1 [Compound 637]
*A* 249 to 251 °C

*Q* Look up and state reported melting point for Cc1ccc(S(=O)(=O)Nc2cccc(-c3nnc(-c4ccc(C(=O)O)cc4)o3)c2)cc1 [Compound 13]
*A* > 275 °C

*Q* Look up and state reported melting point for CC(C)c1ccc(-c2cnc(-c3ccc(C(=O)O)cc3)o2)cc1 [Compound 635]
*A* 233 to 234 °C

*Q* Look up and state reported melting point for COc1ccc(-c2cnc(-c3ccc(C(=O)O)cc3)o2)cc1OC [Compound 547]
*A* 241 to 243 °C

###

RECORDED_ENDPOINT: melting point

Some compounds with recorded melting point:
> print(dat)
                                   compound  recorded.endpoint         result
1  O=C(O)c1cccc(-c2nnc(-c3cccc4[nH]ccc34)o2)c1 [Compound 318]      melting point       > 310 °C
2  Cc1ccc(-c2cc(-c3cccc(C(=O)O)c3)on2)cc1 [Compound 505]      melting point  253 to 254 °C
3  O=C(O)c1cccc(-c2cc(-c3ccccc3F)no2)c1 [Compound 501]      melting point  231 to 232 °C
4  CC(C)c1ccc(-c2cnc(-c3cccc(C(=O)O)c3)s2)cc1 [Compound No. 310]      melting point  218 to 220 °C

Turning now to a further record.
*Q* Look up and state reported melting point for COc1ccccc1-c1cnc(-c2cccc(C(=O)O)c2)o1 [Compound 593]
*A* 244 to 246 °C
